# testDetails: Genotoxicity in Salmonella typhimurium TA1537 assessed as number of revertant by Ames spot test relative to solvent control
# Assay type: toxicity
# condition: salmonella enterica subsp. enterica serovar typhimurium
readoutName: Ratio
Response field accepts a number only; no unit should be typed.

CCCCCCCCCCCCCC(=O)OCC[N+](C)(C)Cc1cnc(C)c2c1COC(C)(C)O2.[Cl-]: 0.02
CCCCCCCCCCCCCC(=O)OCC[N+](C)(C)Cc1nc(C)c2c(c1CO)COC(C)(C)O2.[Cl-]: 0.05

Look up and report measured Ratio for this entry: CCCCCCCCCCCCCC(=O)OCC[N+](C)(C)Cc1cnc(C)c2c1COC(CCC)O2.[Cl-] (stereo not given)
0.04

Indicate the recorded Ratio value for this molecule: CCCCCCCCCCCCCC(=O)NCC[N+](C)(C)Cc1nc(C)c2c(c1CO)COC(C)(C)O2.[Cl-]
0.01

Input CCCCCCCCCCCC(=O)OCCC[N+](C)(C)Cc1cnc(C)c2c1COC(CCC)O2.[Cl-] (stereo not given) , output reported Ratio.
0.03

Hello, please tell me recorded Ratio for this one: CCCCCCCCCCCCCC(=O)NCC[N+](C)(C)Cc1cnc(C)c2c1COC(C)(C)O2.[Cl-]
0.06

State its Ratio for this molecule: Nc1ccc([N+](=O)[O-])cc1N
3.7

Note down Ratio recorded for CCCCCCCCCCCCCC(=O)NCC[N+](C)(C)Cc1cnc(C)c2c1COC(C)(CCC)O2.[Cl-] (stereo not given)
0.03

Please give the documented Ratio of CCCCCCCCCCCC(=O)NCC[N+](C)(C)Cc1cnc(C)c2c1COC(C)(CCC)O2.[Cl-] (stereo not given)
0.03

Supply reported Ratio belonging to this molecule: CCCCCCCCCCCCCC(=O)NCCC[N+](C)(C)Cc1cnc(C)c2c1COC(C)(C)O2.[Cl-]
0.03

These entries and their values trace back to ChEMBL document CHEMBL4819019.
